Molecular target: T1, SNTG1, Q9NSN8
T1 sequence (Q9NSN8 52-150, limits assumed, looked up): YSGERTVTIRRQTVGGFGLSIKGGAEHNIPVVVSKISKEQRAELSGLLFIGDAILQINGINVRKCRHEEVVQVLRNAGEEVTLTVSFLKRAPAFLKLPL
Assay: holdup assay
Set-up: key: below the threshold = too weak to quantify, mostly under pKd 3.1 to 4
Conditions: plain residues with an end cap or a label only (N-terminal biotin on a linker: ahx)
Measurement Kind: pKd

// known answers, use as guide
- Binder: "NRKREIFSNF [NHERF2, Q15599]"
  Assay Value: "below the threshold"
- Binder: "ESLLLGPSNF [SHROOM4, Q9ULL8]"
  Assay Value: "below the threshold"
- Binder: "RRRKRKRTYL [HPV49-L2, P36762]"
  Assay Value: "below the threshold"
- Binder: "SDSSGQEYSL [KCTD3, Q9Y597]"
  Assay Value: "below the threshold"
- Binder: "TVICWPGSLV [LNX2, Q8N448]"
  Assay Value: 3.7
- Binder: "HNAFLSVTTV [PDZRN4, Q6ZMN7]"
  Assay Value: "below the threshold"

*Q* Param item = RAVEEEESRF [PSCDBP, O60759] ; retrieve measured pKd.
*A* below the threshold

*Q* Param item = GYDWGPATDL [TJP3, O95049] ; retrieve measured pKd.
*A* 4.33

*Q* Param item = PSASCAVTAA [PDLIM4, P50479;P50479-2] ; retrieve measured pKd.
*A* below the threshold

*Q* Param item = LSDPSVSTVV [GRIN1, Q05586;Q05586-2] ; retrieve measured pKd.
*A* below the threshold
